Value source: patent US20190112365A1

- Target Or Test System: T1, Human Tau 2N4R, wild type, recombinant full length (human, UniProt P10636 2-758)
- T1 construct: Full length 2N4R isoform; monomer in SPR and ELISA; heparin-induced aggregates or seeds in the functional assays; also called Tau441; Tau-441
- T1 sequence (P10636 other isoform, or with tags, fused parts or gaps limits assumed): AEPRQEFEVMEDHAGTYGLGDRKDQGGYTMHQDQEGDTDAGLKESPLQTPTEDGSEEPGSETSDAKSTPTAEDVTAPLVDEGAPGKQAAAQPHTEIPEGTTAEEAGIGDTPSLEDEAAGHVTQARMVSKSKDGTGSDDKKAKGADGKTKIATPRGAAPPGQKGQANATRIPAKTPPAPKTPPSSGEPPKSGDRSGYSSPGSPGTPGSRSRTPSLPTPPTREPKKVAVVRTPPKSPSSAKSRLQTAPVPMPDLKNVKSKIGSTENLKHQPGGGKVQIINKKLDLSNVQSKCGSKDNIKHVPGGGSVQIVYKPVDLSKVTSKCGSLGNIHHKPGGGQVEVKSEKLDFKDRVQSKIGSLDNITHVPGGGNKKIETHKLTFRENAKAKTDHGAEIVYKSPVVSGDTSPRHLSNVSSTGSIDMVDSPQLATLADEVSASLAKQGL
- Protocol Text: SPR BIAcore, mAb captured by anti-human IgG, Tau flowed, 1:1 Langmuir
Please go through the items and note down their pKd.
One number for each entry, as −log10 of the molar value.

Binder | pKd
7G6-HCzu9-LCzu6 (antibody, human IgG1, kappa, V domains shown, humanized, human IgG1 kappa) VH: QVQLVQSGAEVKKPGASVKVSCKASGYTFTTYWITWVRQAPGQGLEWMGDIYPGSSICNYAQKFQGRVTMTVDTSTSTVYMELSSLRSEDTAVYYCAREDGYDAWFAYWGQGTLVTVSS VL: DVVMTQSPLSLPVTLGQPASISCRSSQSILHSNGNTYLEWYQQRPGQSPRLLISKVSNRFSGVPDRFSGSGSGTDFTLKISRVEAEDVGVYYCFQGSHVPFTFGQGTKLEIKR | 10.03
7G6-HCzu5-LCzu8 (antibody, human IgG1, kappa, V domains shown, humanized, human IgG1 kappa) VH: QVQLVQSGAEVKKPGASVKVSCKASGYTFTTYWITWVRQAPGQGLEWMGDIYPGSSISNYNEKFKSRVTMTVDTSTSTAYMELSSLRSEDTAVYYCAREDGYDAWFAYWGQGTLVTVSS VL: DVVMTQSPLSLPVTLGQPASISCRSSQSIVHSNGNTYLEWFQQRPGQSPRRLISKVSNRFSGVPDRFSGSGSGTDFTLKISRVEAEDVGVYYCFQGSHVPFTFGQGTKLEIKR | 10.08
7G6-HCzu10-LCzu6 (antibody, human IgG1, kappa, V domains shown, humanized, human IgG1 kappa) VH: QVQLVQSGAEVKKPGASVKVSCKASGYTFTTYWITWVRQAPGQGLEWMGDIYPGSSICNYAQKFQGRVTMTRDTSTSTVYMELSSLRSEDTAVYYCAREDGYDAWFAYWGQGTLVTVSS VL: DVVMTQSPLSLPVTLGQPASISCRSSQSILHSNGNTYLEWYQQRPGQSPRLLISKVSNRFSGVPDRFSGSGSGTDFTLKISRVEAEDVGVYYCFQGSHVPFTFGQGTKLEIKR | 9.97
7G6-HCzu5-LCzu22 (antibody, human IgG1, kappa, V domains shown, humanized, human IgG1 kappa; also called 7G6-LCzu22) VH: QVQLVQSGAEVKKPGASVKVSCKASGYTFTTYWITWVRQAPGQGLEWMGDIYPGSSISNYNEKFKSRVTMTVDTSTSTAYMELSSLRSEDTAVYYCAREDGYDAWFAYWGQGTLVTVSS VL: DVVMTQSPLSLPVTLGQPASISCRSSQSILHSNGNTYLEWYQQRPGQSPRRLISKVSNRFSGVPDRFSGSGSGTDFTLKISRVEAEDVGVYYCFQGSHVPFTFGQGTKLEIKR | 8.83

**Query** Using the record for 7G6-HCzu4-LCzu2 (antibody, human IgG1, kappa, V domains shown, humanized, human IgG1 kappa) VH: QVQLVQSGAEVKKPGASVKVSCKASGYTFTTYWITWVRQAPGQGLEWMGDIYPGSSICNYAQKFQGRVTMTVDTSTSTAYMELSSLRSEDTAVYYCAREDGYDAWFAYWGQGTLVTVSS VL: DVVMTQSPLSLPVTLGQPASISCRSSQSILHSNGNTYLEWYQQRPGQSPRLLICKVSNRFSGVPDRFSGSGSGTDFTLKISRVEAEDVGVYYCFQGSHVPFTFGQGTKLEIKR , report its pKd.
**Result** 9.92
